koff values by entry
studySystem: T1, Cyno FRα ECD-Avi-His (cynomolgus monkey, biotin on the Avi-tag (BirA) in the HTRF assays)
T1 construct: Soluble region with C-terminal Avi and His tags
T1 sequence (chain, as listed by the source limits assumed): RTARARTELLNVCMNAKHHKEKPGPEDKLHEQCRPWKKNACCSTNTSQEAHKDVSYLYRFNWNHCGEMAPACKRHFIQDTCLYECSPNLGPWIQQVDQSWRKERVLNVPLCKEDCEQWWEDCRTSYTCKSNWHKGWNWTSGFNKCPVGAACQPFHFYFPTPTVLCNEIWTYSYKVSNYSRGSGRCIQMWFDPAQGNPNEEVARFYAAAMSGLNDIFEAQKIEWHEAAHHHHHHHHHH
procedureText: SPR (Biacore T200, 25°C); antibody captured on Protein A, FRα ECD as analyte
I only need the number, in s⁻¹, no unit after it.

binder	koff, s⁻¹
AB1370095 hIgG1 (antibody, V domains shown) VH: EVQLVESGGGLVKPGGSLRLSCAASGFTFSSYSMNWVRQAPGKGLEWVSSISSRSSYVYYADSVKGRFTISRDNAKNSLYLQMNSLRAEDTAVYYCARGMTTLTFDYWGQGTLVTVSS VL: DIQMTQSPSSLSASVGDRVTITCRASQGISSFLAWFQQKPGKAPKSLIYAASSLQSGVPSKFSGSGSGTDFTLTISSLQPEDFATYYCQQYNSYPLTFGGGTKVEIKR	0.00183
AB1370035 hIgG1 (antibody, V domains shown) VH: QVQLQQSGPGLVKPSQTLSLTCAISGDSVSSNSAAWNWIRQSPSRGLEWLGRTYYRSNWYNDYTLSVKSRITVNPDTSKNQFSLQLNSVTPEDTAVYYCVRGVGRFDSWGQGTLVTVSS VL: DIQMTQSPSTLSASVGDRVIITCRASQSISSWLAWYQQKPGKAPKLLIYKASSLESGVPSRFSGSGSGTEFTLTITSLQPDDFASYYCQEYKTYSIFTFGPGTKVDIKR	0.000508
AB1370083 hIgG1 (antibody, V domains shown) VH: EVQLVESGGGLVKPGGSLRLSCAASGFTFSSYNMNWVRQAPGKGLEWVSSISSGSSYIYYADSMKGRFTISRDNAKNSLFLQMNSLRAEDTAVYYCARGMTTLTFDYWGQGTLVTVSS VL: DIQMTQSPSSLSASVGDRVTITCRASQGISTFLAWFQQKPGKAPKSLIYAASSLQSGVPSKFSGSGSETDFTLTISSLQPEDFATYYCQQYISYPLTFGGGTKVEIKR	0.00016

Now, please, on to the next binder.
-- ask Output measured koff for this item: AB1370026 hIgG1 (antibody, V domains shown) VH: EVQLVESGGGLVKPGGSLRLSCAASGFTFSSYAMSWVRQAPGKGLEWVSSISSGRSYIYYADSVKGRFTISRDNAKNSLYLKMNSLRDEDTAVYYCAREMQQLALDYWGQGTLVTVSS VL: DIQMTQSPSSLSASVGDRVTITCRASQGISNFLAWFQQAPGKAPKSLIYAASSLQSGVPSKFSGSGSGTDFTLTISSLQPEDFATYYCQQYNSYPFTFGQGTKLEIKR
-- reply 0.000342
